- subject of test: TCR / mCD1d-glycolipid complex (Mus musculus)
- Sequence (P11609 19-297): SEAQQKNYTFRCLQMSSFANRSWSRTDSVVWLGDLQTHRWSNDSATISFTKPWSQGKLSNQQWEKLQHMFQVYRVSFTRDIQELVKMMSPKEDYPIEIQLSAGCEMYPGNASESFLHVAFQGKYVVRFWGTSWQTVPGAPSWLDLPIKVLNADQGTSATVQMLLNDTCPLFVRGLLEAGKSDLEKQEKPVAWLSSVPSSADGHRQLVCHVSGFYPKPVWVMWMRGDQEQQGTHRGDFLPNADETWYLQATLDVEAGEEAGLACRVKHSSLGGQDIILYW
- Sequence (P01887 21-119 partner): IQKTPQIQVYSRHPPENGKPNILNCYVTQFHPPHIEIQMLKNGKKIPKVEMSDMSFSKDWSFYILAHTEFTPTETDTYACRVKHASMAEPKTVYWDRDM
- measurement protocol: Surface plasmon resonance: TCR binding to mCD1d-glycolipid complexes
quantity name: Kd (nM)
I only need the number, in nM, no unit after it.

Could you tell me which Kd is on file for CCCCCCCCCCCCCCCCCCCCCCCCCC(=O)N[C@@H](CO[C@H]1O[C@H](CO)[C@H](O)[C@H](O)[C@H]1O)[C@H](O)[C@H](O)CCCCCCCCCCCCCC [α-GalCer, α-galactosyl ceramide] ?
11
